- assayed system: Wee1-like protein kinase (Homo sapiens)
- experiment notes: Wee1 degradation inhibitors, primary screen, cell-based, HeLa, Wee1K328M-luciferase, luminescence (AID 1321);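 also: cells exposed to compound for 20 h before luminescence read; 0% = DMSO alone and 100% = MG132 at 30 µM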
- condition label: HeLa Luc-Wee1K328M stability, at 5 µM, hits give high values, 100% = proteasome inhibitor MG132 effect
Out of some 220,000 compounds screened, about 2,600 (1.2%) were called active. Only a selection was taken, and actives are over-represented in it overall.

molecule: COc1ccc(C(=O)N/N=C2\CCS(=O)(=O)c3ccc(F)cc32)cc1OC
units: %
reporter increase: 0.62

molecule: CC(C)NS(=O)(=O)c1ccc(NC(=O)C2CCCCC2)cc1
units: %
reporter increase: -3.05

molecule: COc1ccc(CN2C(=O)C(C)S/C2=N/N=C/c2ccco2)cc1 (stereo unspecified)
units: %
reporter increase: 5.4

molecule: CN(C)c1ccnc(Nc2ccc(F)cc2)c1C#N
units: %
reporter increase: 4.88

molecule: CCCc1nc(-c2cc3cc(C)ccc3[nH]c2=O)no1
units: %
reporter increase: -2.96

molecule: Cc1ccc(N2C(=O)CC(N3CCSCC3)C2=O)c(C)c1 (stereo unspecified)
units: %
reporter increase: -2.9

molecule: COc1ccc(-c2noc(-c3ccc(C)cc3)n2)cc1
units: %
reporter increase: -0.18

molecule: Cn1c(SCC(=O)c2ccc(F)cc2)nnc1-c1ccccn1
units: %
reporter increase: -0.76

molecule: COc1cccc(-c2nnc(SCCOc3ccc4c(C)cc(=O)oc4c3)o2)c1
units: %
reporter increase: 9.51

molecule: CCOC(=O)[C@H]1CCC[C@@H](NS(=O)(=O)c2ccc(NC(C)=O)cc2)C1
units: %
reporter increase: 0.32

molecule: CCOC(=O)C1=C(c2ccccc2)NC(=S)NC1c1ccc(Cl)cc1 (stereo unspecified)
units: %
reporter increase: 3.7
